pD2 values, listed per item
- measuredTarget: Serotonin 3 (5-HT3) receptor (Homo sapiens) (UniProt P46098+A5X5Y0+O95264+Q70Z44+Q8WXA8)
- measurementDescription: Evaluated for the antagonistic activity against Serotonin 5-hydroxytryptamine 3 receptor in isolated rabbit vagus nerve (RVN)
- Assay type: functional, tissue-based
- conditionDetails: Oryctolagus cuniculus, target entry is the homologue from another species
Give the value as a plain number.

In the examples that follow, each entry is paired with its recorded pD2.
> print(dat)
                                   compound                            measuredtarget  recordedendpoint  observed
1   NCCC1CCCc2ccc(O)cc21 (stereo not given)  Serotonin 3 (5-HT3) receptor (Homo sapiens) (UniProt P46098+A5X5Y0+O95264+Q70Z44+Q8WXA8)               pD2         6
2  O=C(CC1CC2CCC(C1)N2)c1c[nH]c2cc(O)ccc12 (stereo not given)  Serotonin 3 (5-HT3) receptor (Homo sapiens) (UniProt P46098+A5X5Y0+O95264+Q70Z44+Q8WXA8)               pD2         7
3                 N#Cc1[nH]c2ccc(O)cc2c1CCN  Serotonin 3 (5-HT3) receptor (Homo sapiens) (UniProt P46098+A5X5Y0+O95264+Q70Z44+Q8WXA8)               pD2       7.2
4                      NCCc1ccnc2ccc(O)cc12  Serotonin 3 (5-HT3) receptor (Homo sapiens) (UniProt P46098+A5X5Y0+O95264+Q70Z44+Q8WXA8)               pD2       5.8

Inquiry: Requested read-out pD2, target or system Serotonin 3 (5-HT3) receptor (Homo sapiens) (UniProt P46098+A5X5Y0+O95264+Q70Z44+Q8WXA8), entry "Cc1[nH]c2ccc(O)cc2c1CCN"
Reply text: 5.6

----------
- measuredTarget: Serotonin 3 (5-HT3) receptor
- measurementDescription: Antagonistic activity against Serotonin 5-hydroxytryptamine 3 receptor of isolated guinea pig ileum (GPI)
- Assay type: functional, tissue-based, Cavia porcellus
pA2 values, listed per item
Give the value as a plain number.

In the examples that follow, each entry is paired with its recorded pA2.
> print(dat)
                                   compound  recordedendpoint  observed
1  CN1C2CC(OC(=O)c3c[nH]c4ccccc34)CC1C1OC12 (centres undefined)               pA2       8.8
2  Nc1c(Cl)cc(C(=O)NC2CCN3CCCC2C3)c2nsnc12 (centres undefined)               pA2       6.8
3  O=C(CC1CC2CCC(C1)N2)c1c[nH]c2cc(O)ccc12 (centres undefined)               pA2         6
4  COc1cc(N)c(Cl)cc1C(=O)N[C@H]1CCN(CCCOc2ccc(F)cc2)C[C@H]1OC [CISAPRIDE]               pA2       7.2
5  Nc1c(Cl)cc(C(=O)NC2CCN3CCCC2C3)c2ncccc12 (centres undefined)               pA2       6.7

Inquiry: Request the reported pA2 associated with CCN(CC)CCNC(=O)c1cc(Cl)c(N)cc1OC [METOCLOPRAMIDE]
Reply text: 5.2

Inquiry: Request the reported pA2 associated with Nc1c(Cl)cc(C(=O)NC2CN3CCC2CC3)c2nsnc12 (centres undefined)
Reply text: 7.7

Inquiry: Request the reported pA2 associated with COc1ccc2[nH]ccc2c1C(=O)NC1CN2CCC1CC2 (centres undefined)
Reply text: 7.2

Inquiry: Request the reported pA2 associated with Nc1c(Cl)cc(C(=O)NC2CN3CCC2CC3)c2ncccc12 (centres undefined)
Reply text: 7.9

----------
- measurementDescription: pKa value was determined
- Format: physicochemical
pKa values, listed per item
Give the value as a plain number.

> print(dat)
                                   compound  observed
1  CN1[C@@H]2CC[C@H]1C[C@@H](OC(=O)c1c[nH]c3ccccc13)C2 [TROPISETRON]       8.4

Inquiry: Request the reported pKa associated with CN1C2CC(OC(=O)c3c[nH]c4ccccc34)CC1C1OC12 (configuration not stated)
Reply text: 6.64

----------
- measuredTarget: 5-hydroxytryptamine receptor 4 (Cavia porcellus) (UniProt O70528)
- Sequence (O70528 whole entry): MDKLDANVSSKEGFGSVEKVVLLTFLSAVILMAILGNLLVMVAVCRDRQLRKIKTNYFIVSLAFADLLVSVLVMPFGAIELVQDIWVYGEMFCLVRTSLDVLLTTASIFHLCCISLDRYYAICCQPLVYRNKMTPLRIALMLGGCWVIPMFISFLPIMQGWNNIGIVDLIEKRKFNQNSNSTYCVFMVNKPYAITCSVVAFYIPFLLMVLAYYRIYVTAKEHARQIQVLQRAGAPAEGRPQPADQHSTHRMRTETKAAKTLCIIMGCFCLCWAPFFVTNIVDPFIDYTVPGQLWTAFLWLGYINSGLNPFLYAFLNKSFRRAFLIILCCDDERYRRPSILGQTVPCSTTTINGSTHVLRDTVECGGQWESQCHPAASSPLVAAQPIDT
- measurementDescription: Agonistic activity against Serotonin 5-hydroxytryptamine 4 receptor in non-electrically stimulated guinea-pig ileum.
- Format: functional, tissue-based
pD2 values, listed per item
Give the value as a plain number.

In the examples that follow, each entry is paired with its recorded pD2.
> print(dat)
                                   molecule  recordedendpoint  observed
1  Nc1c(Cl)cc(C(=O)NC2CCN3CCCC2C3)c2ncccc12 (configuration not stated)               pD2       7.1
2  Nc1c(Cl)cc(C(=O)NC2CCN3CCCC2C3)c2nsnc12 (configuration not stated)               pD2         6
3  COc1cc(N)c(Cl)cc1C(=O)N[C@H]1CCN2CCC[C@@H]1C2               pD2       5.7
4  COc1cc(N)c(Cl)cc1C(=O)NC1CN2CCC1CC2 (configuration not stated)               pD2       5.9
5  Nc1c(Cl)cc(C(=O)NC2CN3CCC2CC3)c2nsnc12 (configuration not stated)               pD2       5.5

Inquiry: Request the reported pD2 associated with Nc1c(Cl)cc(C(=O)NC2CN3CCC2CC3)c2ncccc12 (configuration not stated)
Reply text: 6

Inquiry: Request the reported pD2 associated with COc1ccc2[nH]ccc2c1C(=O)NC1CN2CCC1CC2 (configuration not stated)
Reply text: 7.1

----------
pD2 values, listed per item
- measuredTarget: Serotonin 3 (5-HT3) receptor (Homo sapiens) (UniProt P46098+A5X5Y0+O95264+Q70Z44+Q8WXA8)
- measurementDescription: Evaluated for the antagonistic activity against Serotonin 5-hydroxytryptamine 3 receptor in isolated perfused rabbit heart (RH)
- Assay type: functional
- conditionDetails: Oryctolagus cuniculus; target entry is the homologue from another species
Give the value as a plain number.

In the examples that follow, each entry is paired with its recorded pD2.
> print(dat)
                                   compound  observed
1  O=C(CC1CC2CCC(C1)N2)c1c[nH]c2cc(O)ccc12 (centres undefined)         6
2  NCCC1CCCc2ccc(O)cc21 (centres undefined)       5.7
3                 N#Cc1[nH]c2ccc(O)cc2c1CCN         4

Inquiry: Request the reported pD2 associated with "Cc1[nH]c2ccc(O)cc2c1CCN"
Reply text: 5.5

----------
- measuredTarget: 5-hydroxytryptamine receptor 4 (Cavia porcellus) (UniProt O70528)
- measurementDescription: Agonistic activity against Serotonin 5-hydroxytryptamine 4 receptor in low frequency field stimulation of guinea-pig ileum (FSGPI).
- Type: functional, tissue-based
recordedEndpoint: pD2
Give the value as a plain number.

Inquiry: Request the reported pD2 associated with Nc1c(Cl)cc(C(=O)NC2CCN3CCCC2C3)c2ncccc12 (stereo unspecified)
Reply text: 7.5

Inquiry: Request the reported pD2 associated with "COc1cc(N)c(Cl)cc1C(=O)N[C@H]1CCN2CCC[C@@H]1C2"
Reply text: 7.1

Inquiry: Request the reported pD2 associated with COc1cc(N)c(Cl)cc1C(=O)N[C@H]1CCN(CCCOc2ccc(F)cc2)C[C@H]1OC [CISAPRIDE]
Reply text: 6

Inquiry: Request the reported pD2 associated with COc1cc(N)c(Cl)cc1C(=O)NC1CN2CCC1CC2 (stereo unspecified)
Reply text: 6.2

----------
- measuredTarget: 5-hydroxytryptamine receptor 4 (Cavia porcellus) (UniProt O70528)
- measurementDescription: Agonistic activity against Serotonin 5-HT4 receptor in low frequency field stimulation of guinea-pig ileum (FSGPI)
- Assay type: functional, tissue-based
recordedEndpoint: pD2
Give the value as a plain number.

In the examples that follow, each entry is paired with its recorded pD2.
> print(dat)
                                querysmiles  observed
1  N/C(Cc1c[nH]c2ccc(O)cc12)=N\CCc1c[nH]c2ccc(O)cc12       6.3
2   Cc1[nH]c2ccc(O)cc2c1CC(=N)NCCCN1CCCC1=O       5.8
3          CCN(CC)CCN1CCc2cc(N)c(Cl)cc2C1=O       5.2

Inquiry: Request the reported pD2 associated with "NCCc1c[nH]c2ccc(O)cc12"
Reply text: 7

Inquiry: Request the reported pD2 associated with "CCN(CC)Cc1coc(-c2cc(Cl)c(N)cc2OC)n1"
Reply text: 6.1

----------
- measuredTarget: Serotonin 3 (5-HT3) receptor (Homo sapiens) (UniProt P46098+A5X5Y0+O95264+Q70Z44+Q8WXA8)
- measurementDescription: Evaluated for the antagonistic activity against Serotonin 5-hydroxytryptamine 3 receptor in isolated guinea pig ileum (GPI)
- Type: functional, tissue-based
- conditionDetails: Cavia porcellus, target entry is the homologue from another species
recordedEndpoint: pD2

In the examples that follow, each entry is paired with its recorded pD2.
> print(dat)
                                   compound  recordedendpoint  observed
1                 N#Cc1[nH]c2ccc(O)cc2c1CCN               pD2       5.4
2                      NCCc1ccnc2ccc(O)cc12               pD2       4.5
3  NCCC1CCCc2ccc(O)cc21 (centres undefined)               pD2       5.2

Next item in the queue.
Inquiry: Request the reported pD2 associated with "Cc1[nH]c2ccc(O)cc2c1CCN"
Reply text: 5.1
